Quick reference for polarity index among some compounds
Experiment: Measurement of interfacial tension (polarity index) of emollients
Format: physicochemical
Details: interfacial tension emollient/water, Tensimat Densimat TD2000
Method: The term “polarity index” refers to non-polar or polar oils. Non-polar oils are mainly based on hydrocarbons and lack an electronegative element, such as oxygen. In contrast, polar oils contain heteroatoms that differ in electronegativity, which results in a dipole moment. […] The polarity index can be determined by measuring the interfacial tension between the respective oil and water. Interfacial tension of the respective emollients as listed below was measured using a Tensimat Densimat TD2000.
Where a name gives a salt, the structure may show the parent alone.
quantity_name: polarity index

compound="CCCCOC(=O)CCCCC(=O)OCCCC [dibutyl adipate]" value_observed="14 mN/m"
compound="CCOC(=O)CC(O)(CC(=O)OCC)C(=O)OCC [triethyl citrate]" value_observed="7 mN/m"
compound="CCCCOC(=O)CC(O)(CC(=O)OCCCC)C(=O)OCCCC [tributyl citrate]" value_observed="10 mN/m"
compound="CCCCCCCCCCC(CO)CCCCCCCC (stereo not shown)" value_observed="25 mN/m"
compound="O=C(OCCc1ccccc1)c1ccccc1 [phenethyl benzoate]" value_observed="19 mN/m"
compound="CC(C)OC(=O)CCCCC(=O)OC(C)C [diisopropyl adipate]" value_observed="12 mN/m"
compound="CC(C)OC(=O)CCCCCCCCC(=O)OC(C)C [diisopropyl sebacate]" value_observed="19 mN/m"
